Assign inhibition to each entry below.
target: Perilipin-5 (Homo sapiens) + 1-acylglycerol-3-phosphate O-acyltransferase ABHD5 (Homo sapiens) (UniProt Q00G26+Q8WTS1); experiment: ABHD5-PLIN5 interaction inhibitors, primary screen, cell lysate, split luciferase complementation, luminescence (AID 602281);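 further: 0% = DMSO only wells and the 100% control is not disclosed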; settings: Split G. princeps luciferase complementation, 4 h, at 4 µM, active compounds read high
Sequence (Q00G26 whole entry, looked up): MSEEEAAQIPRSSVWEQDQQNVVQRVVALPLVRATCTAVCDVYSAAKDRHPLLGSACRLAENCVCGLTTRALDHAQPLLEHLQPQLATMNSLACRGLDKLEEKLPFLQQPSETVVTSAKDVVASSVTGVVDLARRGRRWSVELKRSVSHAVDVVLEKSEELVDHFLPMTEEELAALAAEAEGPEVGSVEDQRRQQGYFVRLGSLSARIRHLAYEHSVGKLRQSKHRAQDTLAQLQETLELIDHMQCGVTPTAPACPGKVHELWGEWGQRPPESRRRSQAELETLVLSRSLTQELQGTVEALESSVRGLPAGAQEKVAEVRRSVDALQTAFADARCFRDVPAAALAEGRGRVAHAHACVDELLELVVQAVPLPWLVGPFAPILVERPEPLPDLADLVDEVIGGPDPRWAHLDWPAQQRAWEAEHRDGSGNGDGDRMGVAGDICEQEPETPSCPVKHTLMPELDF
Sequence (Q8WTS1 whole entry, looked up): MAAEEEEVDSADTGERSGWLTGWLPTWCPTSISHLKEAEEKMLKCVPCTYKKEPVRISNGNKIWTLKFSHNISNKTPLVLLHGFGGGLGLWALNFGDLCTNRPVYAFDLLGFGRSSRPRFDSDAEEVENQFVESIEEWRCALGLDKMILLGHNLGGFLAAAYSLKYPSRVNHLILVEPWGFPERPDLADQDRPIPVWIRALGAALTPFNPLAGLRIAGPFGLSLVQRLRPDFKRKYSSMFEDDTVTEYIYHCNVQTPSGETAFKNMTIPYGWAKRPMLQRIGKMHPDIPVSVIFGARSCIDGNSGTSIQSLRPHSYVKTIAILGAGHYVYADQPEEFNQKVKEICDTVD
The whole screen tested about 360,000 compounds, of which about 2,900 (0.81%) were called active. For the sample, actives were picked, then their nearest neighbours and some compounds at random.
The reply should contain only the number, in %.

I would be grateful if you could share the reported inhibition for COc1cc(/C=C(\C#N)C(=O)Nc2ccc3ccccc3c2)c([N+](=O)[O-])cc1OC .
-3.38

Let us now turn to O=C(COC(=O)c1ncc(Cl)c(Cl)c1Cl)NCc1cccs1
0.28

Please do the same for Cc1ccn(C(CC(=O)c2ccc(Br)cc2)C(=O)O)n1 (stereo not given) as well.
33.3

Can you check Cc1ccc(NC(=O)CCC(=O)c2ccc(Br)cc2)cc1 next?
4.03

Entry c1cc(-c2ccc3[nH]ccc3c2)n2ccnc2c1 please
0.38

Now give it for COc1ccc(CNC(=O)/C(C#N)=C/c2cccc(OC)c2OC)cc1 too.
36

CC(C)c1nnc(NC(=O)C2CC(=O)N(CCc3ccc(F)cc3)C2)s1 (stereo not given) , same question.
-0.4

Next record, please: CCOc1ccc(CCN2C(=O)C(=O)N([C@@H](Cc3ccc(O)cc3)CN3CCC[C@H]3CN3C(=O)C(=O)NC[C@@H]3CC(C)C)C[C@@H]2Cc2ccccc2)cc1
3.51

Continue with CCCCN(CC)CCCNC(=O)c1ccc(CSc2nc3ccncc3[nH]2)cc1
-1.26

How about CC(=O)c1c(C)n(-c2ccc(N(C)C)cc2)c2ccc(OCC(N)=O)cc12 ?
-5.31
